Origin of values: ChEMBL document CHEMBL1201862

- System: A498
- method summary: NCI tumour cell line growth inhibition, 48 h
Calls of active or inactive are those of the source. Cut-off read from the data, not from the text of the source: active = GI50 up to about 1.1 µM and inactive = higher.
Each record here notes measured GI50.

Input: Return reported GI50; argument: `C[C@H](CCCOS(C)(=O)=O)[C@H]1CC[C@H]2[C@@H]3CC[C@@H]4C[C@H](OS(C)(=O)=O)CC[C@]4(C)[C@H]3CC[C@]12C`
Output: 22.3 µM (inactive)

Input: Now try `CCS(=O)(=O)CCn1c(=O)c2c(ncn2C)n(C)c1=O` .
Output: > 100 µM (inactive)

Input: Now try `O=C(/C=C/c1cccs1)c1ccc(Cl)cc1` .
Output: 99.3 µM (inactive)
